System: 855422-203-R-J1-PDC spheroids with HUVEC/MSC, viability
assay method text: Anticancer human tumor 855422-203-R-J1-PDC patient-derived bladder carcinoma cell line growth inhibition [PI3K]; active means viability on the fitted dose curve at most 10% of control; inactive means the rest
condition notes: second compound 0.316 µM; first compound 0.316 µM
Text: Combinatorial screen of targeted agents with the PI3K inhibitors inavolisib, alpelisib, duvelisib, and copanlisib in multi-cell type tumor spheroids A high-throughput screen of multi-cell type tumor spheroids was designed to identify active combinations of targeted small molecules and PI3K pathway inhibitors. […] Compounds. […] If the clinical Cmax for an agent had not been determined, the highest concentration tested was 10 microM. […]
Classes used: class 1 = active, class 0 = inactive

| molecule | assay target | class assignment |
| --- | --- | --- |
| CCCS(=O)(=O)Nc1ccc(F)c(C(=O)c2c[nH]c3ncc(-c4ccc(Cl)cc4)cc23)c1F + CC(Nc1ncnc2nc[nH]c12)c1cc2cccc(Cl)c2c(=O)n1-c1ccccc1 | 855422-203-R-J1-PDC spheroids with HUVEC/MSC, viability | class 0 |
| CC1(C)CCC(Nc2ncc(C(F)(F)F)c(-c3c[nH]c4c(P(C)(C)=O)c(C#N)ccc34)n2)CN1 (stereo not given) + Cc1nc(NC(=O)N2CCCC2C(N)=O)sc1-c1ccnc(C(C)(C)C(F)(F)F)c1 | 855422-203-R-J1-PDC spheroids with HUVEC/MSC, viability | class 0 |
| C#Cc1c(F)ccc2cc(O)cc(-c3ncc4c(N5CC6CCC(C5)N6)nc(OCC56CCCN5CC(F)C6)nc4c3F)c12 (stereo not given) + CC(Nc1ccc2c(c1)OCCn1cc(N3C(=O)OCC3C(F)F)nc1-2)C(N)=O | 855422-203-R-J1-PDC spheroids with HUVEC/MSC, viability | class 0 |
| CC1(C)CCC(Nc2ncc(C(F)(F)F)c(-c3c[nH]c4c(P(C)(C)=O)c(C#N)ccc34)n2)CN1 (stereo not given) + COc1c(OCCCN2CCOCC2)ccc2c3n(c(=NC(=O)c4cnc(N)nc4)nc12)CCN3 | 855422-203-R-J1-PDC spheroids with HUVEC/MSC, viability | class 1 |
| CNC(=O)c1ccc(N2C(=S)N(c3ccc(C#N)c(C(F)(F)F)c3)C(=O)C2(C)C)cc1F + Cc1nc(NC(=O)N2CCCC2C(N)=O)sc1-c1ccnc(C(C)(C)C(F)(F)F)c1 | 855422-203-R-J1-PDC spheroids with HUVEC/MSC, viability | class 0 |

* * *

System: 855422-203-R-J1-PDC spheroids with HUVEC/MSC, viability
assay method text: Anticancer human tumor 855422-203-R-J1-PDC cell line growth inhibition [PI3K];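 further: agents incubated with spheroids for one week before read-out; 100% = DMSO vehicle-treated control wells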
condition notes: second compound 0.01 µM; first compound 0.1 µM; stronger effect = lower value

| compound | assay target | quantity unit | viability, T/C |
| --- | --- | --- | --- |
| CC(C)NCC(C(=O)N1CCN(c2ncnc3c2C(C)CC3O)CC1)c1ccc(Cl)cc1 (stereo unspecified) + COc1c(OCCCN2CCOCC2)ccc2c3n(c(=NC(=O)c4cnc(N)nc4)nc12)CCN3 | 855422-203-R-J1-PDC spheroids with HUVEC/MSC, viability | % | 73.3 |
| Cn1ncnc1[C@H]1c2n[nH]c(=O)c3cc(F)cc(c23)N[C@@H]1c1ccc(F)cc1 + COc1c(OCCCN2CCOCC2)ccc2c3n(c(=NC(=O)c4cnc(N)nc4)nc12)CCN3 | 855422-203-R-J1-PDC spheroids with HUVEC/MSC, viability | % | 92.2 |
| CC(C)n1nc(-c2ccc3oc(N)nc3c2)c2c(N)ncnc21 + CC(Nc1ccc2c(c1)OCCn1cc(N3C(=O)OCC3C(F)F)nc1-2)C(N)=O | 855422-203-R-J1-PDC spheroids with HUVEC/MSC, viability | % | 19 |
| CC1(C)CCC(CN2CCN(c3ccc(C(=O)NS(=O)(=O)c4ccc(NCC5CCOCC5)c([N+](=O)[O-])c4)c(Oc4cnc5[nH]ccc5c4)c3)CC2)=C(c2ccc(Cl)cc2)C1 + COc1c(OCCCN2CCOCC2)ccc2c3n(c(=NC(=O)c4cnc(N)nc4)nc12)CCN3 | 855422-203-R-J1-PDC spheroids with HUVEC/MSC, viability | % | 77.5 |
| CC(=O)c1c(C)c2cnc(Nc3ccc(N4CCNCC4)cn3)nc2n(C2CCCC2)c1=O + CC(Nc1ccc2c(c1)OCCn1cc(N3C(=O)OCC3C(F)F)nc1-2)C(N)=O | 855422-203-R-J1-PDC spheroids with HUVEC/MSC, viability | % | 75.8 |
| CC(Cn1ccc(-c2ccc(C#N)c(Cl)c2)n1)NC(=O)c1cc(C(C)O)[nH]n1 (stereo unspecified) + CC(Nc1ccc2c(c1)OCCn1cc(N3C(=O)OCC3C(F)F)nc1-2)C(N)=O | 855422-203-R-J1-PDC spheroids with HUVEC/MSC, viability | % | 82.4 |
| Cn1ncnc1[C@H]1c2n[nH]c(=O)c3cc(F)cc(c23)N[C@@H]1c1ccc(F)cc1 + CC(Nc1ccc2c(c1)OCCn1cc(N3C(=O)OCC3C(F)F)nc1-2)C(N)=O | 855422-203-R-J1-PDC spheroids with HUVEC/MSC, viability | % | 104 |
| Cn1ncc(Cl)c1-c1cc(C(=O)NC(CN)Cc2cccc(F)c2)sc1Cl (stereo unspecified) + COc1c(OCCCN2CCOCC2)ccc2c3n(c(=NC(=O)c4cnc(N)nc4)nc12)CCN3 | 855422-203-R-J1-PDC spheroids with HUVEC/MSC, viability | % | 69.8 |
| CC1(C)CCC(CN2CCN(c3ccc(C(=O)NS(=O)(=O)c4ccc(NCC5CCOCC5)c([N+](=O)[O-])c4)c(Oc4cnc5[nH]ccc5c4)c3)CC2)=C(c2ccc(Cl)cc2)C1 + CC(Nc1ccc2c(c1)OCCn1cc(N3C(=O)OCC3C(F)F)nc1-2)C(N)=O | 855422-203-R-J1-PDC spheroids with HUVEC/MSC, viability | % | 77.2 |
| CNC(=O)c1ccc(N2C(=S)N(c3ccc(C#N)c(C(F)(F)F)c3)C(=O)C2(C)C)cc1F + CC(Nc1ccc2c(c1)OCCn1cc(N3C(=O)OCC3C(F)F)nc1-2)C(N)=O | 855422-203-R-J1-PDC spheroids with HUVEC/MSC, viability | % | 91.2 |
| Cn1nccc1Nc1nccc(-c2ccn(C(CO)c3ccc(Cl)c(F)c3)c(=O)c2)n1 (stereo unspecified) + CC(Nc1ccc2c(c1)OCCn1cc(N3C(=O)OCC3C(F)F)nc1-2)C(N)=O | 855422-203-R-J1-PDC spheroids with HUVEC/MSC, viability | % | 96.2 |

* * *

System: 855422-203-R-J1-PDC spheroids with HUVEC/MSC, viability
assay method text: Anticancer human tumor 855422-203-R-J1-PDC cell line growth inhibition [PI3K];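 further: agents incubated with spheroids for one week before read-out; 100% = DMSO vehicle-treated control wells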
condition notes: second compound 1 µM; first compound 0.0316 µM; stronger effect = lower value
measured endpoint: viability, T/C (%)

| compound | assay target | value reported |
| --- | --- | --- |
| Cn1ncc(Cl)c1-c1cc(C(=O)NC(CN)Cc2cccc(F)c2)sc1Cl (stereo unspecified) + COc1c(OCCCN2CCOCC2)ccc2c3n(c(=NC(=O)c4cnc(N)nc4)nc12)CCN3 | 855422-203-R-J1-PDC spheroids with HUVEC/MSC, viability | 3.34 |
| CNC(=O)c1ccc(N2C(=S)N(c3ccc(C#N)c(C(F)(F)F)c3)C(=O)C2(C)C)cc1F + Cc1nc(NC(=O)N2CCCC2C(N)=O)sc1-c1ccnc(C(C)(C)C(F)(F)F)c1 | 855422-203-R-J1-PDC spheroids with HUVEC/MSC, viability | 72.5 |
| Cn1ncc(Cl)c1-c1cc(C(=O)NC(CN)Cc2cccc(F)c2)sc1Cl (stereo unspecified) + CC(Nc1ccc2c(c1)OCCn1cc(N3C(=O)OCC3C(F)F)nc1-2)C(N)=O | 855422-203-R-J1-PDC spheroids with HUVEC/MSC, viability | 38.1 |
| CC(C)n1nc(-c2ccc3oc(N)nc3c2)c2c(N)ncnc21 + CC(Nc1ncnc2nc[nH]c12)c1cc2cccc(Cl)c2c(=O)n1-c1ccccc1 | 855422-203-R-J1-PDC spheroids with HUVEC/MSC, viability | 57.6 |
| C[C@@H](NC(=O)c1ncnc(N)c1Cl)c1ncc(C(=O)Nc2cc(C(F)(F)F)c(Cl)cn2)s1 + COc1c(OCCCN2CCOCC2)ccc2c3n(c(=NC(=O)c4cnc(N)nc4)nc12)CCN3 | 855422-203-R-J1-PDC spheroids with HUVEC/MSC, viability | 4.22 |
| CC1(C)CCC(Nc2ncc(C(F)(F)F)c(-c3c[nH]c4c(P(C)(C)=O)c(C#N)ccc34)n2)CN1 (stereo unspecified) + CC(Nc1ncnc2nc[nH]c12)c1cc2cccc(Cl)c2c(=O)n1-c1ccccc1 | 855422-203-R-J1-PDC spheroids with HUVEC/MSC, viability | 24.2 |
| CC1(C)CCC(CN2CCN(c3ccc(C(=O)NS(=O)(=O)c4ccc(NCC5CCOCC5)c([N+](=O)[O-])c4)c(Oc4cnc5[nH]ccc5c4)c3)CC2)=C(c2ccc(Cl)cc2)C1 + CC(Nc1ncnc2nc[nH]c12)c1cc2cccc(Cl)c2c(=O)n1-c1ccccc1 | 855422-203-R-J1-PDC spheroids with HUVEC/MSC, viability | 95.6 |
| CC1(C)CCC(CN2CCN(c3ccc(C(=O)NS(=O)(=O)c4ccc(NCC5CCOCC5)c([N+](=O)[O-])c4)c(Oc4cnc5[nH]ccc5c4)c3)CC2)=C(c2ccc(Cl)cc2)C1 + COc1c(OCCCN2CCOCC2)ccc2c3n(c(=NC(=O)c4cnc(N)nc4)nc12)CCN3 | 855422-203-R-J1-PDC spheroids with HUVEC/MSC, viability | 3.97 |
| C=CC(=O)N1CCN(c2nc(=O)n(-c3c(C)ccnc3C(C)C)c3nc(-c4c(O)cccc4F)c(F)cc23)C(C)C1 (stereo unspecified) + Cc1nc(NC(=O)N2CCCC2C(N)=O)sc1-c1ccnc(C(C)(C)C(F)(F)F)c1 | 855422-203-R-J1-PDC spheroids with HUVEC/MSC, viability | 75.9 |
| CC(C)NCC(C(=O)N1CCN(c2ncnc3c2C(C)CC3O)CC1)c1ccc(Cl)cc1 (stereo unspecified) + CC(Nc1ncnc2nc[nH]c12)c1cc2cccc(Cl)c2c(=O)n1-c1ccccc1 | 855422-203-R-J1-PDC spheroids with HUVEC/MSC, viability | 88.6 |
| Cn1ncnc1[C@H]1c2n[nH]c(=O)c3cc(F)cc(c23)N[C@@H]1c1ccc(F)cc1 + COc1c(OCCCN2CCOCC2)ccc2c3n(c(=NC(=O)c4cnc(N)nc4)nc12)CCN3 | 855422-203-R-J1-PDC spheroids with HUVEC/MSC, viability | 4.31 |
| CCCS(=O)(=O)Nc1ccc(F)c(C(=O)c2c[nH]c3ncc(-c4ccc(Cl)cc4)cc23)c1F + CC(Nc1ncnc2nc[nH]c12)c1cc2cccc(Cl)c2c(=O)n1-c1ccccc1 | 855422-203-R-J1-PDC spheroids with HUVEC/MSC, viability | 92.8 |
| C=CC(=O)N1CCN(c2nc(=O)n(-c3c(C)ccnc3C(C)C)c3nc(-c4c(O)cccc4F)c(F)cc23)C(C)C1 (stereo unspecified) + CC(Nc1ncnc2nc[nH]c12)c1cc2cccc(Cl)c2c(=O)n1-c1ccccc1 | 855422-203-R-J1-PDC spheroids with HUVEC/MSC, viability | 100 |
| CC(C)n1nc(-c2ccc3oc(N)nc3c2)c2c(N)ncnc21 + COc1c(OCCCN2CCOCC2)ccc2c3n(c(=NC(=O)c4cnc(N)nc4)nc12)CCN3 | 855422-203-R-J1-PDC spheroids with HUVEC/MSC, viability | 3.47 |
| Cn1nccc1Nc1nccc(-c2ccn(C(CO)c3ccc(Cl)c(F)c3)c(=O)c2)n1 (stereo unspecified) + CC(Nc1ncnc2nc[nH]c12)c1cc2cccc(Cl)c2c(=O)n1-c1ccccc1 | 855422-203-R-J1-PDC spheroids with HUVEC/MSC, viability | 107 |
| C=CC(=O)N1CCN(c2nc(=O)n(-c3c(C)ccnc3C(C)C)c3nc(-c4c(O)cccc4F)c(F)cc23)C(C)C1 (stereo unspecified) + CC(Nc1ccc2c(c1)OCCn1cc(N3C(=O)OCC3C(F)F)nc1-2)C(N)=O | 855422-203-R-J1-PDC spheroids with HUVEC/MSC, viability | 39 |
| CCCS(=O)(=O)Nc1ccc(F)c(C(=O)c2c[nH]c3ncc(-c4ccc(Cl)cc4)cc23)c1F + CC(Nc1ccc2c(c1)OCCn1cc(N3C(=O)OCC3C(F)F)nc1-2)C(N)=O | 855422-203-R-J1-PDC spheroids with HUVEC/MSC, viability | 36.7 |
| CC1(C)CCC(CN2CCN(c3ccc(C(=O)NS(=O)(=O)c4ccc(NCC5CCOCC5)c([N+](=O)[O-])c4)c(Oc4cnc5[nH]ccc5c4)c3)CC2)=C(c2ccc(Cl)cc2)C1 + Cc1nc(NC(=O)N2CCCC2C(N)=O)sc1-c1ccnc(C(C)(C)C(F)(F)F)c1 | 855422-203-R-J1-PDC spheroids with HUVEC/MSC, viability | 76.8 |
| Cn1ncnc1[C@H]1c2n[nH]c(=O)c3cc(F)cc(c23)N[C@@H]1c1ccc(F)cc1 + CC(Nc1ccc2c(c1)OCCn1cc(N3C(=O)OCC3C(F)F)nc1-2)C(N)=O | 855422-203-R-J1-PDC spheroids with HUVEC/MSC, viability | 33.5 |
| CC(C)n1nc(-c2ccc3oc(N)nc3c2)c2c(N)ncnc21 + CC(Nc1ccc2c(c1)OCCn1cc(N3C(=O)OCC3C(F)F)nc1-2)C(N)=O | 855422-203-R-J1-PDC spheroids with HUVEC/MSC, viability | 24.1 |
| C#Cc1c(F)ccc2cc(O)cc(-c3ncc4c(N5CC6CCC(C5)N6)nc(OCC56CCCN5CC(F)C6)nc4c3F)c12 (stereo unspecified) + Cc1nc(NC(=O)N2CCCC2C(N)=O)sc1-c1ccnc(C(C)(C)C(F)(F)F)c1 | 855422-203-R-J1-PDC spheroids with HUVEC/MSC, viability | 70.5 |
